Measured cell viability, listed per entry.
# System: DLD1
# test: cell viability (CellTiter-Glo) relative to plate median (fraction of plate median); higher = more viable cells
# condition.label: 5 µM; treatment time 24 h; reporter: 7TFP
readout.type: cell viability

chemical.string: COc1ccc2c(c1)O[C@@H]1COc3cc(OC)c(OC)cc3[C@@H]1C2=O
reported.measurement: 1.02
--
chemical.string: O=C(Cc1cccs1)N[C@@H]1C(=O)N2C(C(=O)[O-])=C(C[n+]3ccccc3)CS[C@H]12
reported.measurement: 0.979
--
chemical.string: O=C1OCCN1/N=C/c1ccc([N+](=O)[O-])o1
reported.measurement: 0.984
--
chemical.string: COc1ccc(-c2cc(=O)c3c(OC)c(OC)c(OC)cc3o2)cc1OC
reported.measurement: 1.01
